Reference source: patent US8217000B2

experiment: Plasma pharmacokinetics of CR665 after single IV infusion in human subjects; settings: male, human, plasma, iv, 0.03 mg/kg, AUC0-∞, males, 1 hour IV infusion, geometric mean
Counter-ions that a name gives are not always drawn. Non-standard residues stand in square brackets, D forms with d. Residues, ends and D or L forms follow the SMILES beside them. *: point of attachment. NH(4-picolyl) = c1cc(CN*)ccn1; dNle = CCCC[C@@H](N)C(=O)O
Assay readout: AUC(0-inf)
Entry format: amount then unit.

So what's the measured AUC(0-inf) for this one? CCCC[C@@H](NC(=O)[C@@H](Cc1ccccc1)NC(=O)[C@H](N)Cc1ccccc1)C(=O)N[C@H](CCCNC(=N)N)C(=O)NCc1ccncc1 [CR665, acetate salt] (H-[dF][dF][dNle][dR]-{NH(4-picolyl)}) 72.5 ng·h/mL
